Each recorded value in this set is attributed to ChEMBL document CHEMBL1148704.

test system: A549; assay: Cytotoxicity against human A549 cells after 72 hrs by MTT colorimetric method; type: functional, cell-based; conditions: A549, 72 h
Would you mind telling me the reported pIC50 of each entry?
// returns pIC50 (minus log10 of molar concentration), number only

Request: Fill in: pIC50 of COc1cc(O)c2c(=O)cc(C3(O)C=CC(=O)C=C3)oc2c1 is ___
Result: 5.51

Request: Which pIC50 value belongs to COC1(c2cc(=O)c3ccc4ccccc4c3o2)C=CC(=O)C=C1 ?
Result: 4.55

----------
For each entry below, report its pIC50 value.
tested on: MCF7; test: Cytotoxicity against human MCF7 cells after 72 hrs by MTT colorimetric method; format: functional, cell-based; details: MCF7, 72 h
FYI, pIC50 means -log10 of a concentration in mol per litre.

Request: May I ask what pIC50 has been recorded for COC1(c2cc(=O)c3c(ccc4ccccc43)o2)C=CC(=O)C=C1 ?
Result: 5.57

Request: Query (compound): O=C1C=CC(O)(c2cc(=O)c3c(O)cccc3o2)C=C1 ; field requested: pIC50
Result: 5.46

Request: Which pIC50 value is on record for COC1(c2cc(=O)c3ccc4ccccc4c3o2)C=CC(=O)C=C1 ?
Result: 5.53

Request: Which pIC50 reading was recorded for the compound COC1(c2cc(=O)c3c(O)cccc3o2)C=CC(=O)C=C1 ?
Result: 5.26

Request: What value of measured pIC50 is listed for COc1cc(OC)c2c(=O)cc(C3(O)C=CC(=O)C=C3)oc2c1 ?
Result: 5.92

Request: pIC50 for COc1cc(O)c2c(=O)cc(C3(O)C=CC(=O)C=C3)oc2c1 ?
Result: 5.77

----------
system: A549; test: Cytotoxicity against human A549 cells after 72 hrs by MTT colorimetric method; assay type: functional, cell-based; details: A549, 72 h
# strict inequality: IC50 < 5 µM yields YES, everything else yields NO

Request: Lab note: IC50 threshold 5 µM. Does this compound come in strictly under it? COc1cc(OC)c2c(=O)cc(C3(O)C=CC(=O)C=C3)oc2c1
Result: YES

Request: Criterion: IC50 strictly below 5 µM. Is it met by COC1(c2cc(=O)c3c(O)cccc3o2)C=CC(=O)C=C1 ?
Result: NO

Request: Consider the compound COc1cccc2c1C(=O)c1c(O)c3c(c(O)c1C2=O)C[C@@](O)(C(=O)CO)C[C@@H]3O[C@H]1C[C@H](N)[C@H](O)[C@H](C)O1 . Is its IC50 strictly less than 5 µM?
Result: YES

Request: Hi there! Is IC50 for O=C1C=CC(O)(c2cc(=O)c3ccccc3o2)C=C1 below 5 µM, do you know?
Result: NO

Request: Say whether its IC50 is strictly beneath 5 µM. Entry: COC1(c2cc(=O)c3c(ccc4ccccc43)o2)C=CC(=O)C=C1
Result: NO

Request: Report whether reported IC50 is lower than 5 µM (strictly) for O=C1C=CC(O)(c2cc(=O)c3c(O)cc(O)cc3o2)C=C1
Result: NO

Request: Is IC50 strictly under 5 µM for the entry COc1cc(OC)c2c(=O)cc(C3(OC)C=CC(=O)C=C3)oc2c1 ?
Result: NO

Request: Is the reported IC50 for O=C1C=CC(O)(c2cc(=O)c3c(ccc4ccccc43)o2)C=C1 strictly below 5 µM?
Result: YES

Request: Dear reviewer, please state whether COCOc1cc(O)c2c(=O)cc(C3(O)C=CC(=O)C=C3)oc2c1 has IC50 strictly beneath 5 µM.
Result: NO
